# Organism: Homo sapiens
# Test Details: Inhibition of full length human Akt1 […] mutant assessed as remaining activity at 1 uM using GRPRTSSFAEGKK as substrate incubated for 40 mins by scintillation counting method relative to control
Some compounds, each annotated with its measured Activity.
Property Label: Activity

>>> value("CC(C)NCC(C(=O)N1CCN(c2ncnc3sc4c(c23)CCC4)CC1)c1ccc(Br)cc1 (stereo not drawn)")
"1%"
>>> value("CCN1CCc2c(sc3ncnc(N4CCN(C(=O)C(CNC(C)C)c5ccc(Cl)cc5)CC4)c23)C1 (stereo not drawn)")
"73%"
>>> value("CC(C)NCC(C(=O)N1CCN(c2ncnc3sc4c(c23)CCN(Cc2ccccc2)C4)CC1)c1ccc(Cl)cc1 (stereo not drawn)")
"71%"
>>> value("O=C(C(CNC1CCCCC1)c1ccc(Cl)cc1)N1CCN(c2ncnc3sc4c(c23)CCC4)CC1 (stereo not drawn)")
"1%"
>>> value("COc1ccc(C(CNC(C)C)C(=O)N2CCN(c3ncnc4sc5c(c34)CCN(C)C5)CC2)cc1 (stereo not drawn)")
"81%"
>>> value("Cc1ccc(C(CNC(C)C)C(=O)N2CCN(c3ncnc4sc5c(c34)CCN(C)C5)CC2)cc1 (stereo not drawn)")
"78%"
>>> value("CCNCC(C(=O)N1CCN(c2ncnc3sc4c(c23)CCC4)CC1)c1ccc(Cl)cc1 (stereo not drawn)")
"1%"
>>> value("CC(C)NCC(C(=O)N1CCN(c2ncnc3sc4c(c23)CCC4)CC1)c1ccc(Cl)cc1 (stereo not drawn)")
"11%"
>>> value("CCNCC(C(=O)N1CCN(c2ncnc3sc4c(c23)CCN(C)C4)CC1)c1ccc(Cl)cc1 (stereo not drawn)")
"95%"
>>> value("CC(C)NCC(C(=O)N1CCN(c2ncnc3sc4c(c23)CCN(C(C)C)C4)CC1)c1ccc(Cl)cc1 (stereo not drawn)")
"76%"
>>> value("CC(C)NCC(C(=O)N1CCN(c2ncnc3sc4c(c23)CCN(C2CC2)C4)CC1)c1ccc(Cl)cc1 (stereo not drawn)")
"77%"
>>> value("CN1CCc2c(sc3ncnc(N4CCN(C(=O)C(CNC5CCCCC5)c5ccc(Cl)cc5)CC4)c23)C1 (stereo not drawn)")
"84%"
>>> value("CC(C)NCC(C(=O)N1CCN(c2ncnc3sc4c(c23)CCC4)CC1)c1ccc(F)cc1 (stereo not drawn)")
"26%"
>>> value("CCCCNCC(C(=O)N1CCN(c2ncnc3sc4c(c23)CCN(C)C4)CC1)c1ccc(Cl)cc1 (stereo not drawn)")
"81%"
>>> value("CN1CCc2c(sc3ncnc(N4CCN(C(=O)C(CNC5CCCC5)c5ccc(Cl)cc5)CC4)c23)C1 (stereo not drawn)")
"82%"
>>> value("CC(C)NCC(C(=O)N1CCN(c2ncnc3sc4c(c23)CCN(C)C4)CC1)c1ccc(Cl)cc1 (stereo not drawn)")
"50%"
>>> value("O=C(C(CNC1CCCC1)c1ccc(Cl)cc1)N1CCN(c2ncnc3sc4c(c23)CCC4)CC1 (stereo not drawn)")
"1%"
>>> value("CC(C)NCC(C(=O)N1CCN(c2ncnc3sc4c(c23)CCN(C)C4)CC1)c1ccc(F)cc1 (stereo not drawn)")
"88%"

* * *

# Test Details: Inhibition of full length human Akt1 […] mutant using GRPRTSSFAEGKK as substrate incubated for 40 mins by scintillation counting method
Quick rule for you: IC50 under 40 nM gets Y, anything else gets N.

>>> label_value("CC(C)NC[C@@H](C(=O)N1CCN(c2ncnc3c2[C@H](C)C[C@H]3O)CC1)c1ccc(Cl)cc1 [IPATASERTIB]")
"Y"
>>> label_value("CCCCNCC(C(=O)N1CCN(c2ncnc3sc4c(c23)CCC4)CC1)c1ccc(Cl)cc1 (stereo unspecified)")
"N"
>>> label_value("O=C(C(CNC1CCCCC1)c1ccc(Cl)cc1)N1CCN(c2ncnc3sc4c(c23)CCC4)CC1 (stereo unspecified)")
"N"
>>> label_value("CCNCC(C(=O)N1CCN(c2ncnc3sc4c(c23)CCC4)CC1)c1ccc(Cl)cc1 (stereo unspecified)")
"N"
>>> label_value("O=C(C(CNC1CCCC1)c1ccc(Cl)cc1)N1CCN(c2ncnc3sc4c(c23)CCC4)CC1 (stereo unspecified)")
"Y"
